Items are presented alongside their recorded pKi.
Target: UniProt P22303
Assay: Binding affinity to AChE (unknown origin) assessed as inhibition constant
Field pKi (float): negative decimal logarithm of the concentration in molar.

These solved cases illustrate the format of a correct answer.
compound.smiles | readout.label | endpoint.result
NS(=O)(=O)c1ccc(/N=C/c2cc(Br)cc(Br)c2O)cc1 | pKi | 7.68
NS(=O)(=O)c1ccc(NCc2cccc(Cl)c2O)cc1 | pKi | 7.68
NS(=O)(=O)c1ccc(NCc2cccc(Br)c2O)cc1 | pKi | 7.11

Now let's try a different one.
Exam item: # lookup: pKi of `NS(=O)(=O)c1ccc(/N=C/c2cc(Br)cc(Cl)c2O)cc1`
Marked response: 7.68

###

Assay read-out pIC50; system under study: Cholinesterase (Homo sapiens, UniProt P06276).
Sequence (P06276 whole entry): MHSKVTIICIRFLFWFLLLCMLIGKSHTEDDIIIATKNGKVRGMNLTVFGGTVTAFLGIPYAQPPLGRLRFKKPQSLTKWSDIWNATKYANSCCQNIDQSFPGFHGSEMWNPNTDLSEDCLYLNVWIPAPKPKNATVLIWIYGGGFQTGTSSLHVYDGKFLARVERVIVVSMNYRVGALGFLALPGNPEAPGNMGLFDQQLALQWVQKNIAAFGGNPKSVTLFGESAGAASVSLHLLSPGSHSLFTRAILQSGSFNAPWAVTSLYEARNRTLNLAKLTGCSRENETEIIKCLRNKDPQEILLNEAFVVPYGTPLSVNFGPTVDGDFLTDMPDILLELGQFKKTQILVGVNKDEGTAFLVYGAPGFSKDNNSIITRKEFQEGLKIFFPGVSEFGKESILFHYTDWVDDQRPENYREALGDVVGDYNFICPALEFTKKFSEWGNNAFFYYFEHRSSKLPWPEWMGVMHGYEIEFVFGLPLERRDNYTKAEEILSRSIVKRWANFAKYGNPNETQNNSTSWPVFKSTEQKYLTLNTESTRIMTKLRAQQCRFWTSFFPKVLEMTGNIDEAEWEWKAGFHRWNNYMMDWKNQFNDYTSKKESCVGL
Field pIC50 (float): negative decimal logarithm of the concentration in molar.

compound.smiles | endpoint.result
COc1ccc(-c2cc3c(ccc4c(/C=C/c5cc(OC)cc(OC)c5)cc(=O)oc43)o2)cc1 | 5.46
COc1cc(/C=C/c2cc(=O)oc3c2ccc2oc(-c4cccc(F)c4)cc23)cc(OC)c1 | 5.46
COc1cc(/C=C/c2cc(=O)oc3c2ccc2oc(-c4ccc(Cl)cc4)cc23)cc(OC)c1 | 5.46
COc1cc(/C=C/c2cc(=O)oc3c2ccc2oc(-c4ccc(F)cc4)cc23)cc(OC)c1 | 5.46

Now let's try a different one.
Exam item: Notebook entry, Cholinesterase (Homo sapiens, UniProt P06276) assay: pIC50 of `COc1cc(/C=C/c2cc(=O)oc3c2ccc2oc(-c4cc(OC)cc(OC)c4)cc23)cc(OC)c1` = ?
Marked response: 5.20

###

Target: Acetylcholinesterase (Homo sapiens)
Sequence (P22303 whole entry): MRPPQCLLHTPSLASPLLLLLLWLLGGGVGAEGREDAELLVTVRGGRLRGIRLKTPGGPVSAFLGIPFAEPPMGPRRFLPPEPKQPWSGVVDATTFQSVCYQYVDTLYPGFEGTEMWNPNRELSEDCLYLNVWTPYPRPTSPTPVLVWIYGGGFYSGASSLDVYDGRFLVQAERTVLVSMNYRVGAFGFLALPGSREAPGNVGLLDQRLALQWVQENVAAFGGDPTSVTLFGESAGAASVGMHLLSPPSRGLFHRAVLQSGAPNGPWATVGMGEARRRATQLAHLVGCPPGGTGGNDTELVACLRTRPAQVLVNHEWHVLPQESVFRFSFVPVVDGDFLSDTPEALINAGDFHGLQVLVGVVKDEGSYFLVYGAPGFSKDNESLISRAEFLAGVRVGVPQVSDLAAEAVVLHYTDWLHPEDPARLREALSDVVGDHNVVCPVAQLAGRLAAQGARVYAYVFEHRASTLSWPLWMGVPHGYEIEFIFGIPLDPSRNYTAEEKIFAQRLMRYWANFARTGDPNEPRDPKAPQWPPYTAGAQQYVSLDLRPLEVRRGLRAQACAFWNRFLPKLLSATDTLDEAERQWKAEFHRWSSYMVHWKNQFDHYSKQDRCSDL
Experiment: Inhibition of AChE (unknown origin) using ATCI as substrate incubated for 30 mins by Ellman's method
readout.label: IC50 (µM)
// return numeric value only (unit: µM, not printed)

Exam item: Notebook entry, Acetylcholinesterase (Homo sapiens) assay: IC50 of `CCn1c2ccccc2c2cc(/C=C/c3ccc(NC(=S)NCCN4CCCC4)cc3)ccc21` = ?
Marked response: 2.64

###

Biological target: UniProt:P06276
Test: Inhibition of BChE (unknown origin) using BTCI as substrate incubated for 30 mins by Ellman's method
readout.label: pIC50
Field pIC50 (float): negative decimal logarithm of the concentration in molar.

Exam item: # lookup: pIC50 of `CCn1c2ccccc2c2cc(/C=C/c3ccc(NC(=S)NCCN4CCCC4)cc3)ccc21`
Marked response: 5.89

###

Molecular target: Carbonic anhydrase 2 (Homo sapiens, UniProt P00918)
readout.label: pKi
Field pKi (float): negative decimal logarithm of the concentration in molar.

Exam item: # lookup: pKi of `NS(=O)(=O)c1ccc(/N=C/c2cc(Br)cc(Cl)c2O)cc1`
Marked response: 7.79
